# ASSAY: Solubility of rucaparib camsylate crystal forms in simulated gastric juice
# Type: physicochemical
# COND: simulated gastric juice, about 1 mg in 1 mL, shaking 20 min, filtered, HPLC
# Solubility in SGF values compiled below
Reply with just the number (in µg/mL).

Solved cases below.
CNCc1ccc(-c2[nH]c3cc(F)cc4c3c2CCNC4=O)cc1 [Form A] : 100
CNCc1ccc(-c2[nH]c3cc(F)cc4c3c2CCNC4=O)cc1 [Form D] : 310
CNCc1ccc(-c2[nH]c3cc(F)cc4c3c2CCNC4=O)cc1 [Form C] : 110

# ---- query molecule ----
What the record says about CNCc1ccc(-c2[nH]c3cc(F)cc4c3c2CCNC4=O)cc1 [Form B] : Solubility in SGF is 130
